Test system: HCC 2998
ASSAY_INFO: Growth inhibition of human HCC 2998 cells incubated for 48 hrs by sulforhodamine B assay
Format: functional
RECORDED_CONDITIONS: read-out: LC50 (the source's name)
Provide the recorded CC50 for the entries that follow.

Below: 5 molecules and their reported CC50.
CN1CCc2nc3sc(C(N)=O)c(N)c3c(-c3cccs3)c2C1 = > 100 µM
CCc1cccc(C)c1NC(=O)c1sc2nc3c(cc2c1N)C(=O)CCC3 = > 100 µM
Cc1cc(C)c(NC(=O)c2sc3nc4c(cc3c2N)CN(Cc2ccccc2)CC4)c(C)c1 = > 100 µM
CCc1ccccc1NC(=O)c1sc2nc3c(cc2c1N)C(=O)CCC3 = > 100 µM
Cc1cccc(NC(=O)c2sc3nc4c(cc3c2N)C(=O)CCC4)c1 = > 100 µM

I'm hoping you can list CC50 for every molecule here, please.
1. COc1cccc(NC(=O)c2sc3nc4c(cc3c2N)CN(Cc2ccccc2)CC4)c1
2. Nc1c(C(=O)Nc2ccccc2)sc2nc3c(cc12)CN(Cc1ccccc1)CC3
3. Cc1ccc(NC(=O)c2sc3nc4c(cc3c2N)C(=O)CCC4)cc1C

## Output
> 100 µM
> 100 µM
> 100 µM
